# EXPERIMENTAL SYSTEM: PTP1B (Homo sapiens, UniProt P18031)
EXPERIMENTAL ENDPOINT: Ki (nM)

[1] COc1c(O)cc(O)c2c(=O)cc(-c3ccccc3)oc12
[2] COC1(C)CC2c3c(cc(O)cc3O1)OC(c1ccc(O)c(O)c1)C2O (centres unmarked)
Prompt line: Please let me know which one, 1 or 2 , has a lower measured Ki value. Indicate which entry you chose by stating its label.
Response line: 2

###

# Tested on: LPS-stimulated NO release in RAW 264.7 cells
# PROCEDURE DETAILS: Nitrite (Griess) assay of LPS-stimulated NO release
# Type: cell-based
# EXPERIMENTAL CONDITIONS: Mus musculus, RAW264.7, LPS (1 μg/mL)-stimulated RAW 264.7 cells; mean ± SD, n = 3; read-out: IC50 NO production anti-inflammatory effect
EXPERIMENTAL ENDPOINT: IC50 (µM)

COc1c(O)cc(O)c2c(=O)cc(-c3ccccc3)oc12 [Compound 6, wogonin] | 49.4
COc1cc([C@H]2OC[C@H]3[C@H]2CO[C@@H]3c2cc(OC)c(O[C@@H](CO)[C@@H](O)c3cc(OC)c(O)c(OC)c3)c(OC)c2)cc(OC)c1O [Compound 36] | 79.7
COc1cc(C2Oc3c(OC)cc(CCCO)cc3C2CO)ccc1OC(CO)CO (stereo not drawn) [Compound 15] | 13.2

[P] COc1cc(CCCO)ccc1O[C@@H](CO)[C@H](O)c1cc(OC)c(O)c(OC)c1 [Compound 21]
[Q] COc1cc([C@@H](O)[C@H](CO)Oc2ccc(CCCO[C@@H]3O[C@H](CO)[C@@H](O)[C@H](O)[C@H]3O)cc2OC)ccc1O [Compound 22]
Prompt line: Select one. Lower IC50: P or Q Selection: enter the item's label.
Response line: P
(P: 55.5 µM, Q: 83.2 µM)

###

# EXPERIMENTAL SYSTEM: α-Glucosidase (from Baker's yeast)
# PROCEDURE DETAILS: α-Glucosidase inhibitory assay (p-NPG substrate)
# EXPERIMENTAL CONDITIONS: read-out: IC50 α-Glucosidase inhibitory effect; mean ± SD, n = 3
pIC50: −log10 of the molar value.
EXPERIMENTAL ENDPOINT: pIC50

COc1cc(CCCO)ccc1O[C@@H](CO)[C@H](O)c1cc(OC)c(O)c(OC)c1 | 4.21
Oc1ccc([C@H]2Oc3cc(O)cc(O)c3C[C@H]2O)cc1 [Compound 2, (-)-epiafzelechin] | 4.20
COc1cc([C@H]2OC[C@H]3[C@@H]2CO[C@@H]3c2cc(OC)c(O)c(OC)c2)cc(OC)c1O [Compound 31, (+)-syringaresinol] | 4.31

###

# PROCEDURE DETAILS: DPPH free radical scavenging assay
# Format: biochemical
# EXPERIMENTAL CONDITIONS: mean ± SD, n = 3
pIC50: −log10 of the molar value.
EXPERIMENTAL ENDPOINT: pIC50

COc1cc([C@@H](O)[C@H](CO)Oc2c(OC)cc(CCCO)cc2OC)ccc1O[C@@H]1O[C@H](CO)[C@@H](O)[C@H](O)[C@H]1O [Compound 24] | < 4.00

Entry COc1cc([C@H](O)[C@H](CO)Oc2ccc(CCCO)cc2OC)ccc1O [Compound 19] , pIC50 reported as < 4.00

The recorded pIC50 for entry COc1cc([C@@H](O)[C@H](CO)Oc2ccc(CCCO[C@@H]3O[C@H](CO)[C@@H](O)[C@H](O)[C@H]3O)cc2OC)ccc1O [Compound 22] equals < 4.00

###

# EXPERIMENTAL SYSTEM: PTP1B (Homo sapiens, UniProt P18031)
# Sequence (P18031 1-321 limits assumed): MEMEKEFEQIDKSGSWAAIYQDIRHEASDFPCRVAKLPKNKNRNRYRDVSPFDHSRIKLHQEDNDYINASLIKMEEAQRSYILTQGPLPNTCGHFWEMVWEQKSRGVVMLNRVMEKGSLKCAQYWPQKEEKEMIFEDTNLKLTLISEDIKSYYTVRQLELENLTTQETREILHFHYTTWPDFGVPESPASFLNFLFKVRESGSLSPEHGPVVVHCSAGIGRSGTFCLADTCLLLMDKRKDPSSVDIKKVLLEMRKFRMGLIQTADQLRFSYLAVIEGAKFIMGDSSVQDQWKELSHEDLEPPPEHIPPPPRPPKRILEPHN
# PROCEDURE DETAILS: PTP1B inhibitory assay (p-NPP substrate)
EXPERIMENTAL ENDPOINT: IC50 (µM)

Some compounds with recorded IC50:
COc1cc([C@@H](O)[C@H](CO)Oc2ccc(CCCO)cc2OC)ccc1O | 93.6
COc1cc(O)c2c(c1)C(=O)c1cc(C)cc(O)c1C2=O | 24.7
COc1c(O)cc(O)c2c(=O)cc(-c3ccccc3)oc12 | 22.2
COc1cc(O)c2c(=O)cc(-c3ccc(O)cc3)oc2c1 | 30.2
Oc1cc(O)c2c(c1)O[C@H](c1ccc(O)c(O)c1)[C@@H](O)C2 [Compound 3, (+)-catechin] | 91.8

[I] COc1cc([C@H]2OC[C@H]3[C@H]2CO[C@@H]3c2cc(OC)c(O[C@@H](CO)[C@@H](O)c3cc(OC)c(O)c(OC)c3)c(OC)c2)cc(OC)c1O
[II] COc1cc([C@H]2OC[C@H]3[C@@H]2CO[C@@H]3c2cc(OC)c(O)c(OC)c2)ccc1O [Compound 30, (+)-medioresinol]
[III] COc1ccc(C(=O)O)cc1O
[IV] Oc1ccc([C@H]2Oc3cc(O)cc(O)c3C[C@H]2O)cc1 [Compound 2, (-)-epiafzelechin]
Prompt line: List items by IC50 in falling order. Give the labels in the order specified.
Response line: III, I, IV, II

###

# PROCEDURE DETAILS: DPPH free radical scavenging assay
# Assay type: biochemical
# EXPERIMENTAL CONDITIONS: mean ± SD, n = 3
pIC50: −log10 of the molar value.
As shown below, each of these compounds has a reported pIC50 value.

COc1cc(CCCO)cc(OC)c1OC(CO)CO | < 4.00
COc1cc(-c2cc(=O)c3c(O)cc(O[C@@H]4O[C@H](CO)[C@@H](O)[C@H](O)[C@H]4O)cc3o2)cc(OC)c1O [Compound 10, tricin-7-O-β-D-glucoside] | < 4.00
COc1cc([C@@H](O)[C@H](CO)Oc2ccc(CCCO)cc2OC)ccc1O | < 4.00

For record "COc1cc(C(=O)O)ccc1O" the listed pIC50 is < 4.00

response.value for COc1cc(C2Oc3c(OC)cc(CCCO)cc3C2CO)ccc1OC(CO)CO (stereo not drawn) (field: pIC50) = < 4.00

Data point: COc1cc(C2Oc3c(OC)cc(CCCOC4OC(CO)C(O)C(O)C4O)cc3C2CO)ccc1O (stereo not drawn) ; pIC50 = < 4.00

Value of pIC50 reported for the compound COc1cc(C2Oc3c(OC)cc(CCCO)cc3C2CO)ccc1OC1OC(CO)C(O)C(O)C1O (stereo not drawn) is < 4.00

Reported pIC50 of "COc1cc(O)c2c(c1)C(=O)c1cc(C)cc(O)c1C2=O" : < 4.00

Entry "COC(=O)c1ccc(O)c(O)c1" ; pIC50 = 4.20

So, "COc1cc([C@@H]2OC[C@H]3C(=O)OC[C@H]32)ccc1O" ? Its pIC50 was < 4.00

###

# System: LPS-stimulated NO release in RAW 264.7 cells
# PROCEDURE DETAILS: Nitrite (Griess) assay of LPS-stimulated NO release
# Assay type: cell-based
# EXPERIMENTAL CONDITIONS: Mus musculus, RAW264.7, LPS (1 μg/mL)-stimulated RAW 264.7 cells; mean ± SD, n = 3; read-out: IC50 NO production anti-inflammatory effect
EXPERIMENTAL ENDPOINT: IC50 (µM)

// worked examples, IC50 included
COc1cc([C@H](O)[C@H](CO)Oc2ccc(CCCO)cc2OC)ccc1O | 43.6
COc1cc(C2Oc3c(OC)cc(CCCO)cc3C2CO)ccc1OC1OC(CO)C(O)C(O)C1O (stereo not shown) | 36.7
COc1cc(C2Oc3c(OC)cc(CCCO)cc3C2CO)ccc1O (stereo not shown) | 76.7
COc1cc([C@@H]2OC[C@H]3C(=O)OC[C@H]32)ccc1O | 66.9
COc1cc([C@@H]2OC(=O)[C@@H]3[C@H]2CO[C@H]3c2ccc(O)c(OC)c2)ccc1O | 14.8
COc1cc([C@H]2OC[C@H]3[C@@H]2CO[C@@H]3c2cc(OC)c(O)c(OC)c2)cc(OC)c1O [Compound 31, (+)-syringaresinol] | 49
COc1cc(C2Oc3c(OC)cc(CCCOC4OC(CO)C(O)C(O)C4O)cc3C2CO)ccc1O (stereo not shown) | 17.3
COc1cc([C@@H](O)[C@H](CO)Oc2ccc(CCCO)cc2OC)ccc1O | 53.2

[a] COc1cc(O)c2c(=O)cc(-c3ccc(O)cc3)oc2c1
[b] COc1cc([C@@H](O)[C@H](CO)Oc2c(OC)cc([C@@H]3OC[C@@H]4[C@H]3CO[C@H]4c3ccc(O)c(OC)c3)cc2OC)ccc1O (single isomer, unassigned)
Prompt line: Could you tell me which of these two has the smaller IC50 figure? First: a Second: b // caller expects the label of the chosen entry
Response line: b

Source of measurements: paper PMC8545574
